Where do the numbers come from? From paper PMC11649690.

List of Kd values.
# measured.target: T1, CEP RECEPTOR 2 ectodomain (CEPR2^ECD) (Arabidopsis thaliana, UniProt Q9C7T7 32-620)
# T1 construct: CEPR2, Arabidopsis thaliana, ectodomain, residues 32 to 620; Secreted with a 30 K signal peptide from the modified pFastBAC vector; a TEV site stood before the StrepII-9xHis tag, so residues of the site may be left after cleavage; source: Trichoplusia ni Tnao38 cells, secreted, purified (Ni2+, Strep-Tactin, TEV, SEC); not shown: StrepII, C-terminal, cleaved; His9, C-terminal, cleaved
# T1 sequence (looked up): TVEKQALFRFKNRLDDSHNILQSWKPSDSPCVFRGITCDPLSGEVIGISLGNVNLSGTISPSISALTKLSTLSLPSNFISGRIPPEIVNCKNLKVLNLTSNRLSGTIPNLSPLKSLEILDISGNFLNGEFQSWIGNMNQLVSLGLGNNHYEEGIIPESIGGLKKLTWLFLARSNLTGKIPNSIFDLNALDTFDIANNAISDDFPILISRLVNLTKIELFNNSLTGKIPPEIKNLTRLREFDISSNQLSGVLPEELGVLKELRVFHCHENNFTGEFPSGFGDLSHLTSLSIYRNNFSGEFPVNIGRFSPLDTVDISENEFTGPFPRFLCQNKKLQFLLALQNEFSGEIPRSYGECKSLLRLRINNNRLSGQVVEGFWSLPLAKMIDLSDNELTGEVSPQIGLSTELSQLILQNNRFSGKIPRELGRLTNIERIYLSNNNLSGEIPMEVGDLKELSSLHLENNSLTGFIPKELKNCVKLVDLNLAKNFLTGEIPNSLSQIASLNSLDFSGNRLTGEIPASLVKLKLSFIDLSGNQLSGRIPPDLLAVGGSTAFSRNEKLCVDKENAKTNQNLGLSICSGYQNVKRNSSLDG
# experiment: ITC; 300 μM peptide in the syringe injected into 30 μM receptor ectodomain in the cell; 25 °C; 20 mM citrate pH 5.0, 150 mM NaCl (SEC buffer); N fitted to 1; duplicates
# condition: both partners purified
Non-standard residues stand in square brackets, D forms with d. No end group written: not given here. Hyp = O=C(O)[C@@H]1C[C@@H](O)CN1
Note: unit µM is implicit; provide only the numeric part.

>  <binder>
DAFR[Hyp]THQG[Hyp]SQGIGH (CEP4 peptide domain of the CEP4 precursor, Arabidopsis thaliana (AT2G35612); 16mer with N-terminal D and C-terminal H; a 15mer without the N-terminal D is reported only for calcium influx; source: synthetic peptide (Pepmic, at least 90% purity)) [C-… ENCODED PEPTIDE 4 (CEP4), 16mer]

>  <assay.readout>
Kd

>  <val>
15.7

$$$$

Query: Kd; subject: DFRPTNPGNSPGVGH (peptide, UniProt Q8L8Y3 72-86, looked up, CEP1 peptide, the mature CEP domain cut from the CEP1 precursor, Arabidopsis thaliana; source: synthetic peptide (Pepmic, at least 90% purity)) [C-… ENCODED PEPTIDE 1 (CEP1)]
9.3
